pKi values, listed per item
Target Entity: human factor Xa (Enzyme Research Laboratories, Inc.) (human, UniProt P00742 41-179; P00742 235-488, limits assumed)
Sequence (P00742 41-179 limits assumed, chain 1 of 2): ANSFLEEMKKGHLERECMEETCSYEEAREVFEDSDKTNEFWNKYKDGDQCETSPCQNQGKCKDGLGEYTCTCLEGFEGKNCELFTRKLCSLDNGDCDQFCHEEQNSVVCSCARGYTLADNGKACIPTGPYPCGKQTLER
Sequence (P00742 235-488 limits assumed, chain 2 of 2): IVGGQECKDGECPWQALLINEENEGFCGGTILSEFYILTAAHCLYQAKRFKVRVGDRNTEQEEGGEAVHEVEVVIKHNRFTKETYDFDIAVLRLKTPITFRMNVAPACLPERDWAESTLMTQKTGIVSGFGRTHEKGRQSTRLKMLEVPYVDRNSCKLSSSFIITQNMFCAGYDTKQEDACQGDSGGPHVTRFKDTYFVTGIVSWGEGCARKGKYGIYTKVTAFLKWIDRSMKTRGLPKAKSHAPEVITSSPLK
Test Summary: chromogenic FXa inhibition
Description: TBS-P buffer (50 mM Tris-Cl, pH 7.8, 200 mM NaCl, 0.05% (w/v) PEG-8000, 0.02% (w/v) NaN_3) was used for this assay. […]
pKi: −log10 of the molar value. Non-standard residues stand in square brackets, D forms with d. No end group written: not given here. *: point of attachment. Phe(4-NO2) = N[C@@H](Cc1ccc([N+](=O)[O-])cc1)C(=O)O; Cha = N[C@@H](CC1CCCCC1)C(=O)O; For = O=C*

// worked examples, pKi included
1. EYIRLPK-NH2 (also: cyclisation unknown (underlining lost), may be cyclic; underlining lost) [E-Y-I-R-L-P-K-NH2] = > 4.00
2. XIRLP (Y1=Y(3,5-Br); C-term NH2) [Y(3,5-Br)-I-R-L-P-NH2] = > 4.00
3. [Phe(4-NO2)]IRLA-NH2 (N-terminus assumed; SMILES CC[C@H](C)[C@H](NC(=O)[C@@H](N)Cc1ccc([N+](=O)[O-])cc1)C(=O)N[C@@H](CCCNC(=N)N)C(=O)N[C@@H](CC(C)C)C(=O)N[C@@H](C)C(N)=O) [F(pNO2)-I-R-L-A-NH2] = > 4.00
4. Ac-Y[Cha]RLP-NH2 [Ac-Y-Cha-R-L-P-NH2] = > 4.00
5. For-[dY]IRLP-NH2 [For-y-I-R-L-P-NH2] = > 4.00

Okay, next one:
# binder XIRLP (N-term Ac; N-(2-Me-nPentyl) on Y1; Y1=Y(SO3H); C-term NH2) [Ac-(2-Me-nPentyl)Y(SO3H)-I-R-L-P-NH2] ; its pKi = > 4.00
